Data provenance: the supplement of paper PMC10290057

# Test system: HCT116;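 also: HCT116 colorectal carcinoma cells screened at five concentrations per compound, luminescent viability scaled between DMSO wells and empty wells on each plate, curves fitted per compound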
# TEST NAME: AC50 cell viability (CellTiter-Glo); higher = less potent
# EXPERIMENTAL PARAMETERS: 48 h
Where a name gives a salt, the structure may show the parent alone.
ASSAY READOUT: AC50 cell viability (µM)
Numbers only; they are read as µM.

MOLECULE	UNIT OF MEASUREMENT	AC50 cell viability
Clc1ccc(Cn2c(CN3CCCC3)nc3ccccc32)cc1 [Clemizole hydrochloride]	µM	23.5
CC(=O)O/N=C1/C(=C2\C(=O)Nc3cc(Br)ccc32)Nc2ccccc21 [6-Bromoindirubin-3'-acetoxime]	µM	10.5
NC[C@@](O)(c1ccc(Cl)cc1)c1ccc(-c2cn[nH]c2)cc1	µM	7.42

In the following, a different molecule is considered.
Q) If you can, please state the reported AC50 cell viability value of CSc1ccc(C(=O)/C=C/c2cc(C)c(OC(C)(C)C(=O)O)c(C)c2)cc1 [Elafibranor] .
A) 30.3
